Tested on: 695427-040-R-J1-PDC complex spheroid viability;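 note: viability read after seven days of drug exposure; 100% = DMSO vehicle control viability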
EXPERIMENT: Anticancer human tumor 695427-040-R-J1-PDC patient-derived colon adenocarcinoma cell line growth inhibition [RAS]
EXPERIMENTAL PARAMETERS: second compound 0.1 µM; first compound 0.316 µM; stronger effect = lower value
Reported viability, T/C values for a set of molecules

MOLECULE | viability, T/C (%)
CCC(CC)c1cc(NC2CCC(N)C2)n2nccc2n1 (stereo unspecified) + C#Cc1c(F)ccc2cc(O)cc(-c3ncc4c(N5CC6CCC(C5)N6)nc(OCC56CCCN5CC(F)C6)nc4c3F)c12 | 108
C=CC(=O)Nc1cc(Nc2nccc(-c3cn(C)c4ccccc34)n2)c(OC)cc1N(C)CCN(C)C + C=CC(=O)N1CCN(c2nc(OCC3CCCN3C)nc3c(F)c(-c4nc(N)cc(C)c4C(F)(F)F)c(Cl)cc23)C(C)C1 | 56.7
Nc1ccn(C2OC(CO)C(O)C2(F)F)c(=O)n1 (stereo unspecified) + C=CC(=O)N1CCN(c2nc(OCC3CCCN3C)nc3c(F)c(-c4nc(N)cc(C)c4C(F)(F)F)c(Cl)cc23)C(C)C1 | 74.2
O=C(c1ccc(F)c(F)c1Nc1ccc(I)cc1F)N1CC(O)([C@@H]2CCCCN2)C1 + C=CC(=O)N1CCN(c2nc(OCC3CCCN3C)nc3c(F)c(-c4nc(N)cc(C)c4C(F)(F)F)c(Cl)cc23)C(C)C1 | 16.4
CCC(CC)c1cc(NC2CCC(N)C2)n2nccc2n1 (stereo unspecified) + C=CC(=O)N1CCN(c2nc(OCC3CCCN3C)nc3c(F)c(-c4nc(N)cc(C)c4C(F)(F)F)c(Cl)cc23)C(C)C1 | 116
CC(C)NCC(C(=O)N1CCN(c2ncnc3c2C(C)CC3O)CC1)c1ccc(Cl)cc1 (stereo unspecified) + C=CC(=O)N1CCN(c2nc(OCC3CCCN3C)nc3c(F)c(-c4nc(N)cc(C)c4C(F)(F)F)c(Cl)cc23)C(C)C1 | 81.3

All figures here come from PubChem BioAssay AID2060888.
